Experiment: in vitro
Settings: human, liver microsomes
ASSAY ENDPOINT: half-life

Q) Need half-life of [2H]C([2H])([2H])NC(=O)c1nnc(Nc2ccc(C(C)(C)O)cn2)cc1Nc1nccc(-c2ncc(F)cn2)c1OC , thanks.
A) > 2 h

###

Assay: in vitro
Details: human, liver microsomes
The compounds listed here are annotated with their remaining at 10 min, 0.5 µM.
Just the number in %, nothing appended.

SMILES	NUMERIC RESULT
[2H]C([2H])([2H])NC(=O)c1nnc(Nc2ccc(C(C)(C)O)cn2)cc1Nc1nccc(-c2ncc(F)cn2)c1OC	100
[2H]C([2H])([2H])NC(=O)c1nnc(NC(=O)C2CC2)cc1Nc1nccc(-c2ncc(F)cn2)c1OC	89

Please look at the following compound next.
Q) Need remaining at 10 min, 0.5 µM of [2H]C([2H])([2H])NC(=O)c1nnc(Nc2cccc(OC)n2)cc1Nc1nccc(-c2ncn(C)n2)c1OC , thanks.
A) 88

Source: ChEMBL document CHEMBL5365398
